- STUDY_SYSTEM: Tyrosine--tRNA ligase (Escherichia coli (strain K12), UniProt P0AGJ9)
- Sequence (P0AGJ9 whole entry): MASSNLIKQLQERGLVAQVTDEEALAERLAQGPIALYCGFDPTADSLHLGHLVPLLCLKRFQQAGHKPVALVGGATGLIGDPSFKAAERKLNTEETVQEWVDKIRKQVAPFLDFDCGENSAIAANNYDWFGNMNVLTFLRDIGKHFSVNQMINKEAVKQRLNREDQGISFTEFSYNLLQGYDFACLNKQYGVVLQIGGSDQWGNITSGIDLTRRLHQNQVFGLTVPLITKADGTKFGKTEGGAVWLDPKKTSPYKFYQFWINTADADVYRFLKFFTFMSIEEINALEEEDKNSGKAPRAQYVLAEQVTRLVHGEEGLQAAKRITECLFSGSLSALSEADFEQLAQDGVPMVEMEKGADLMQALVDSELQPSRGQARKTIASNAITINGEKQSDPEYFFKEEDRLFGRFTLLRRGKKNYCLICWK
- ASSAY: Inhibition of purified Escherichia coli BL21 (DE3) tyrRS incubated for 10 mins in presence of 14C-labeled tyrosine by radiolabel transfer assay
- TEST_SETTINGS: read-out: Ki(app)
pKi: −log10 of the molar value.
ASSAY_READOUT: pKi

{"columns": ["MOL", "STUDY_SYSTEM", "OBSERVED_VALUE"],
 "data": [
  ["Nc1ccn([C@@H]2O[C@H](COS(=O)(=O)NC(=O)[C@@H](N)Cc3ccc(O)cc3)[C@@H](O)[C@H]2O)c(=O)n1", "Tyrosine--tRNA ligase (Escherichia coli (strain K12), UniProt P0AGJ9)", 5.83],
  ["N[C@@H](Cc1ccc(O)cc1)C(=O)NS(=O)(=O)OC[C@H]1O[C@@H](n2ccc(=O)[nH]c2=O)[C@H](O)[C@@H]1O", "Tyrosine--tRNA ligase (Escherichia coli (strain K12), UniProt P0AGJ9)", 7.36],
  ["Cn1c(=O)ccn([C@@H]2O[C@H](COS(=O)(=O)NC(=O)[C@@H](N)Cc3ccc(O)cc3)[C@@H](O)[C@H]2O)c1=O", "Tyrosine--tRNA ligase (Escherichia coli (strain K12), UniProt P0AGJ9)", 6.83]
]}

* * *

Below, each entry is listed with its recorded pKi.
- STUDY_SYSTEM: UniProtKB P00956
- ASSAY: Inhibition of purified Escherichia coli BL21 (DE3) ileRS incubated for 10 mins in presence of 14C-labeled isoleucine by radiolabel transfer assay
- TEST_SETTINGS: read-out: Ki(app)
pKi: −log10 of the molar value.

{"columns": ["MOL", "pKi"],
 "data": [
  ["CC[C@H](C)[C@H](N)C(=O)NS(=O)(=O)OC[C@H]1O[C@@H](n2ccc(=O)[nH]c2=O)[C@H](O)[C@@H]1O", 7.26],
  ["CC[C@H](C)[C@H](N)C(=O)NS(=O)(=O)OC[C@H]1O[C@@H](n2ccc(N)nc2=O)[C@H](O)[C@@H]1O", 7.76],
  ["CC[C@H](C)[C@H](N)C(=O)NS(=O)(=O)OC[C@H]1O[C@@H](n2ccc(=O)n(C)c2=O)[C@H](O)[C@@H]1O", 5.98]
]}

* * *

- STUDY_SYSTEM: UniProt:P00956
- ASSAY: Inhibition of ileRS in Escherichia coli NCIB 8743 S30 extract assessed as aminoacylation at 250 nM incubated for 5 mins in presence of 14C-labeled isoleucine by liquid scintillation counting method relative to control
- Design: scale not given: the % may be the effect or the level left

{"columns": ["MOL", "Activity"],
 "data": [
  ["CC[C@H](C)[C@H](N)C(=O)NS(=O)(=O)OC[C@H]1O[C@@H](n2cnc3c(N)ncnc32)[C@H](O)[C@@H]1O", "0.05 to 1.8%"],
  ["CC[C@H](C)[C@H](N)C(=O)NS(=O)(=O)OC[C@H]1O[C@@H](n2ccc(=O)n(C)c2=O)[C@H](O)[C@@H]1O", "17 to 34%"],
  ["CC[C@H](C)[C@H](N)C(=O)NS(=O)(=O)OC[C@H]1O[C@@H](n2ccc(=O)[nH]c2=O)[C@H](O)[C@@H]1O", "5 to 14%"],
  ["CC[C@H](C)[C@H](N)C(=O)NS(=O)(=O)OC[C@H]1O[C@@H](n2ccc(N)nc2=O)[C@H](O)[C@@H]1O", "5 to 14%"]
]}
